# shrunken log2 fold change annotations
- Test system: Escherichia coli TOP10;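 further: peptides expressed intracellularly from a pBAD plasmid library in pooled LB shake-flask culture, induced with 0.3% L-arabinose, DNA abundance read by NGS, three biological replicates, DESeq2 with apeglm shrinkage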
- EXPERIMENT_NOTES: shrunken log2 fold change of peptide-encoding DNA abundance (4.5 h post-induction vs induction); higher = less antimicrobial activity (less host growth inhibition)
- PARTICULARS: time post-induction: 4.5 h; library: site-saturation at positions 5, 18, 19, 20
# print the numeric value only

Inquiry: Report shrunken log2 fold change for `RRIRIRPPRLPRPRPRPRAFPRP` please.
Reply text: -0.0671

Inquiry: Do the same for `RRIRQRPPRLPRPRPRPWARPRP` please
Reply text: -0.0405

Inquiry: Do the same for `RRIRARPPRLPRPRPRPPNPPRP` please
Reply text: 0.662

Inquiry: Do the same for `RRIRHRPPRLPRPRPRPIKVPRP` please
Reply text: 0.172

Inquiry: Do the same for `RRIRVRPPRLPRPRPRPFSGPRP` please
Reply text: -0.337

Further cases:
Inquiry: Report shrunken log2 fold change for `RRIRMRPPRLPRPRPRPYSWPRP` please.
Reply text: -0.0788

Inquiry: Do the same for `RRIRERPPRLPRPRPRPVGRPRP` please
Reply text: 0.233

src = the supplement of paper PMC9112550
